Target: T1, hGITR.mFc (human)
T1 construct: soluble dimeric construct with mouse Fc; also called dimeric human GITR
T1 chain: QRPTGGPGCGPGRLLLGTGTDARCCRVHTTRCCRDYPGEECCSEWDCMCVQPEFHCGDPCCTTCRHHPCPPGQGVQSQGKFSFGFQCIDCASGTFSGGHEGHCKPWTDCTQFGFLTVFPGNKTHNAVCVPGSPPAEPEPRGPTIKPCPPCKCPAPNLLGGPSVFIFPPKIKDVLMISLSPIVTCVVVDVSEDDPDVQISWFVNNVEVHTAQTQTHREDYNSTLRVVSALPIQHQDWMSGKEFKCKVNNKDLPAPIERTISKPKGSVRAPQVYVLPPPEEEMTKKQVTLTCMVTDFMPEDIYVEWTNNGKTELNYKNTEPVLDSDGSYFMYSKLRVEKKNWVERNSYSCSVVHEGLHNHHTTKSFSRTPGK
Assay: SPR 37C, mAb capture
Endpoint name: koff
Please answer using a numeric value trailed by its unit.

Query H1H14491P (antibody, human IgG1, V domains shown, human IgG1 (H1H)) VH: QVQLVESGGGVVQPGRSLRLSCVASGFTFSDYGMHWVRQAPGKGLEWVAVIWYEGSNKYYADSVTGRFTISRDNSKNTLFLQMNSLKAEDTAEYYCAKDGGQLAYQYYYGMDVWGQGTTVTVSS VL: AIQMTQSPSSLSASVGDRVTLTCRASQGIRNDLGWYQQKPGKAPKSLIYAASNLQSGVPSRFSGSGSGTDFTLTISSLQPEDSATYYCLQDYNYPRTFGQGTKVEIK yields koff of 0.000169 s⁻¹
